Molecular target: Acetylcholinesterase (Electrophorus electricus)
Consider the cut-off 60 µM. If the recorded IC50 is strictly smaller, the label is Y; if not, the label is N.

1. Brc1ccccc1-c1nnc(/C=C/c2ccc3c(c2)OCO3)o1 | Y
2. COc1ccc(-c2nnc(/C=C/c3ccc4c(c3)OCO4)o2)cc1OC | Y
3. COc1cc(/C=C/c2nnc(-c3cccc([N+](=O)[O-])c3)o2)cc(OC)c1OC | N
4. COc1cc(/C=C/c2nnc(-c3ccccc3)o2)cc(OC)c1OC | Y
5. O=[N+]([O-])c1cccc(-c2nnc(/C=C/c3ccc4c(c3)OCO4)o2)c1 | Y

----------
Entries with reported IC50 on Acetylcholinesterase (Electrophorus electricus, UniProt O42275)
Sequence (O42275 whole entry): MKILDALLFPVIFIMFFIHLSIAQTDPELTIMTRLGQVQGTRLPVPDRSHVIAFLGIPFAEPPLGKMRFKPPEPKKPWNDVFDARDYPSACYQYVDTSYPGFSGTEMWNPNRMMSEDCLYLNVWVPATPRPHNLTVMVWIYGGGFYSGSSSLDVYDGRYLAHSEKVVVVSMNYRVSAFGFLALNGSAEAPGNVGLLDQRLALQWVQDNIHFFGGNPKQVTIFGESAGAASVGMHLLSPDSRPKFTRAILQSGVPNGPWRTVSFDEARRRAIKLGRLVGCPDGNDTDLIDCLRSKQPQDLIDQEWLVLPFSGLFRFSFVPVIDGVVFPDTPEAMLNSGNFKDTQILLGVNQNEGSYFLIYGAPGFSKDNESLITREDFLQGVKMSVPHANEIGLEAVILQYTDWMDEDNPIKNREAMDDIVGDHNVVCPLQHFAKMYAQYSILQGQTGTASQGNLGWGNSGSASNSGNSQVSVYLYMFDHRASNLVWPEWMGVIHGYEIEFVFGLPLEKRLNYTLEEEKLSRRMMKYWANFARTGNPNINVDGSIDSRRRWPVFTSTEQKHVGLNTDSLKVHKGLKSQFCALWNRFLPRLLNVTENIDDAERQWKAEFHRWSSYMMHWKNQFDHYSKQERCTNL
measured_quantity: IC50 (µM)

1) COc1cc(/C=C/c2nnc(-c3ccc(Cl)cc3Cl)o2)cc(OC)c1OC | 62.2
2) Cc1ccc(-c2nnc(/C=C/c3ccc4c(c3)OCO4)o2)cc1 | 45.3
3) COc1cc(/C=C/c2nnc(-c3ccc(F)cc3Cl)o2)cc(OC)c1OC | 60.2
4) COc1cc(/C=C/c2nnc(-c3cncc(Br)c3)o2)cc(OC)c1OC | 62.8
5) Brc1cncc(-c2nnc(/C=C/c3ccc4c(c3)OCO4)o2)c1 | 52.5
6) COc1cc(-c2nnc(/C=C/c3ccc4c(c3)OCO4)o2)cc(OC)c1OC | 48.6
7) COc1ccc(-c2nnc(/C=C/c3ccc4c(c3)OCO4)o2)cc1 | 42.8
8) Clc1ncccc1-c1nnc(/C=C/c2ccc3c(c2)OCO3)o1 | 54.3
9) Fc1ccc(-c2nnc(/C=C/c3ccc4c(c3)OCO4)o2)c(Cl)c1 | 19.6
10) COc1cc(/C=C/c2nnc(-c3ccc([N+](=O)[O-])cc3)o2)cc(OC)c1OC | 49
11) O=[N+]([O-])c1ccc(-c2nnc(/C=C/c3ccc4c(c3)OCO4)o2)cc1 | 37.6
12) COc1cc(/C=C/c2nnc(-c3cccnc3)o2)cc(OC)c1OC | 65
13) COc1cc(/C=C/c2nnc(-c3ccc(C)cc3)o2)cc(OC)c1OC | 60.2
14) COc1cc(/C=C/c2nnc(-c3ccccc3Br)o2)cc(OC)c1OC | 64.9
15) Clc1ccccc1-c1nnc(/C=C/c2ccc3c(c2)OCO3)o1 | 47.4
16) COc1cc(/C=C/c2nnc(-c3ccco3)o2)cc(OC)c1OC | 13.7
17) COc1cc(/C=C/c2nnc(-c3cccnc3Cl)o2)cc(OC)c1OC | 61.2
18) C(=C\c1nnc(-c2ccccc2)o1)/c1ccc2c(c1)OCO2 | 50.1
19) C(=C\c1nnc(-c2cccnc2)o1)/c1ccc2c(c1)OCO2 | 48.5
20) COc1cc(/C=C/c2nnc(-c3ccccc3Cl)o2)cc(OC)c1OC | 58.1
21) Fc1ccc(-c2nnc(/C=C/c3ccc4c(c3)OCO4)o2)cc1Cl | 49.6
22) Clc1ccc(-c2nnc(/C=C/c3ccc4c(c3)OCO4)o2)c(Cl)c1 | 50.3

----------
Entries with reported IC50 on Acetylcholinesterase (Electrophorus electricus)
measured_quantity: IC50

1) COc1ccc(-c2nnc(/C=C/c3cc(OC)c(OC)c(OC)c3)o2)cc1 | 61.2 µM
2) COc1cc(/C=C/c2nnc(-c3cc4ccccc4o3)o2)cc(OC)c1OC | 60.4 µM
3) COc1cc(/C=C/c2nnc(-c3cc(OC)c(OC)c(OC)c3)o2)cc(OC)c1OC | 61.5 µM

Just for reference, ChEMBL document CHEMBL2429729 is where these values come from.
